Test: Apparent permeability across basolateral to apical side in human Caco-2 cells
Format: ADME, cell-based
experimental readout: Papp B→A (×10⁻⁶ cm/s)

IN: Report measured Papp B→A; entry is COc1ncc(-c2cc3c(N4CCOCC4)ncnc3s2)cc1NS(=O)(=O)c1ccc(F)cc1F
OUT: 37.6

IN: Report measured Papp B→A; entry is COc1ncc(-c2nc3c(N4CCOCC4)ncnc3s2)cc1NS(=O)(=O)c1ccc(F)cc1F
OUT: 43.4

###

Assay: Clearance in ICR mouse at 4 mg/kg, iv measured upto 24 hrs by LC-MS/MS analysis
Assay type: ADME, organism-based
Details: in vivo
experimental readout: clearance (mL/min/kg)

1 = COc1ncc(-c2cc3c(N4CCOCC4)ncnc3s2)cc1NS(=O)(=O)c1ccc(F)cc1F
2 = COc1ncc(-c2nc3c(N4CCOCC4)ncnc3s2)cc1NS(=O)(=O)c1ccc(F)cc1F
IN: // returns 1 or 2 , whichever has the lower clearance Let me know the label of the one you choose.
OUT: 2

###

Tested on: SNU-16
Test: Antiproliferative activity against human SNU-16 cells assessed as reduction in cell viability incubated for 72 hrs measured after 4 hrs of MTT addition by MTT assay
Assay type: functional, cell-based
pIC50: −log10 of the molar value.
experimental readout: pIC50

P = COc1ncc(-c2nc3c(N4CCOCC4)ncnc3s2)cc1NS(=O)(=O)c1ccc(F)cc1F
Q = COc1ncc(-c2cc3c(N4CCOCC4)ncnc3s2)cc1NS(=O)(=O)c1ccc(F)cc1F
IN: // returns P or Q , whichever has the lower pIC50 Let me know the label of the one you choose.
OUT: Q
(Q: 5.24, P: 5.51)

###

Test: Half life in ICR mouse at 4 mg/kg, iv measured upto 24 hrs by LC-MS/MS analysis
Type: ADME, organism-based
Details: in vivo
experimental readout: half-life (h)

A = COc1ncc(-c2cc3c(N4CCOCC4)ncnc3s2)cc1NS(=O)(=O)c1ccc(F)cc1F
B = COc1ncc(-c2nc3c(N4CCOCC4)ncnc3s2)cc1NS(=O)(=O)c1ccc(F)cc1F
IN: Endpoint returns whichever of A and B has the numerically higher half-life. Let me know the label of the one you choose.
OUT: B

###

Molecular target: Phosphatidylinositol 4,5-bisphosphate 3-kinase catalytic subunit alpha isoform (Homo sapiens, UniProt P42336)
Sequence (P42336 whole entry, canonical isoform): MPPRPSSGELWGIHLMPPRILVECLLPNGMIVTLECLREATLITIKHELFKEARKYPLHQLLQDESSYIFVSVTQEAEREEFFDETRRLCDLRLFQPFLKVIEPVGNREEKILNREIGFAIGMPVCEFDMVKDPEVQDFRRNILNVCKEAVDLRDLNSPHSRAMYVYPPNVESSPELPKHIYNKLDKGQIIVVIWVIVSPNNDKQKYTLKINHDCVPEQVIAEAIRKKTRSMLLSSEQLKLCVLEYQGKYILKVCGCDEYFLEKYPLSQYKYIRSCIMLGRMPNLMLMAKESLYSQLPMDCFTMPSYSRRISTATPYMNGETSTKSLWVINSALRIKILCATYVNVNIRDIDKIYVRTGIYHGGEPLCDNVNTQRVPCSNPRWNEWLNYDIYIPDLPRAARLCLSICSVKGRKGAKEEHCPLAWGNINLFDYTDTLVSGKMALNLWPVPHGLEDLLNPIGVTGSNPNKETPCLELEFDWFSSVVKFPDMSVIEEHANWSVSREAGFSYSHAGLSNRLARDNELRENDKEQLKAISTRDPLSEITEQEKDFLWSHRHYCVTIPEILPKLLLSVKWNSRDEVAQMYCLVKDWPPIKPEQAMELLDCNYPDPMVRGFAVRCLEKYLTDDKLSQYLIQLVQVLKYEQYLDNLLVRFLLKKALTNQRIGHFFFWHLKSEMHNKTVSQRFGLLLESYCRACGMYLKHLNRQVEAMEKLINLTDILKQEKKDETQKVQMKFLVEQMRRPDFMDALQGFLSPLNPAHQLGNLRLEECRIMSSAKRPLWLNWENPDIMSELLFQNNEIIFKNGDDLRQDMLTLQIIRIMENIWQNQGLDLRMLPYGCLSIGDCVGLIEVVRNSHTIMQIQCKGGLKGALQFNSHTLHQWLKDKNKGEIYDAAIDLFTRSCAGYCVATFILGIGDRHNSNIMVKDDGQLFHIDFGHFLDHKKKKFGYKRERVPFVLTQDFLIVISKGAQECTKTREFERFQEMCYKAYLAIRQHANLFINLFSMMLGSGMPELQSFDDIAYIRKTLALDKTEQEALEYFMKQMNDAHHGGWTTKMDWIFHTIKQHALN
Test: Inhibition of recombinant human full length His-tagged PI3Kalpha expressed in baculovirus expression system using PIP2 as substrate by ADP-Glo reagent based assay
experimental readout: IC50 (nM)

IN: Report measured IC50; entry is COc1ncc(-c2nc3c(N4CC5CCCC5C4)ncnc3s2)cc1NS(=O)(=O)c1ccc(F)cc1F (centres undefined)
OUT: 6.3

P = COc1ncc(-c2nc3c(N4CCCC4)ncnc3s2)cc1NS(=O)(=O)c1ccc(F)cc1F
Q = COc1ncc(-c2cc3c(N4CCCCC4)ncnc3s2)cc1NS(=O)(=O)c1ccc(F)cc1F
IN: Endpoint returns whichever of P and Q has the numerically higher IC50. Let me know the label of the one you choose.
OUT: Q
(Q: 14 nM, P: 3.5 nM)

###

Test: Half life in ICR mouse at 40 mg/kg, po measured upto 24 hrs by LC-MS/MS analysis
Assay type: ADME, organism-based
Details: in vivo
experimental readout: half-life (h)

P = COc1ncc(-c2nc3c(N4CCOCC4)ncnc3s2)cc1NS(=O)(=O)c1ccc(F)cc1F
Q = COc1ncc(-c2cc3c(N4CCOCC4)ncnc3s2)cc1NS(=O)(=O)c1ccc(F)cc1F
IN: // returns P or Q , whichever has the lower half-life Let me know the label of the one you choose.
OUT: P
(P: 6.3 h, Q: 13.7 h)

###

Experiment: Volume of distribution at steady state in ICR mouse at 4 mg/kg, iv measured upto 24 hrs by LC-MS/MS analysis
Format: ADME, organism-based
Conditions: in vivo, read-out: Vdss
experimental readout: Vd (L/kg)

IN: Report measured Vd; entry is COc1ncc(-c2nc3c(N4CCOCC4)ncnc3s2)cc1NS(=O)(=O)c1ccc(F)cc1F
OUT: 0.513

IN: Report measured Vd; entry is COc1ncc(-c2cc3c(N4CCOCC4)ncnc3s2)cc1NS(=O)(=O)c1ccc(F)cc1F
OUT: 0.537

###

Test: Cmax in ICR mouse at 40 mg/kg, po measured upto 24 hrs by LC-MS/MS analysis
Assay type: ADME, organism-based
Design: route oral, dose 40 mg/kg, time <=24
Conditions: in vivo
experimental readout: Cmax (ng/mL)

P = COc1ncc(-c2nc3c(N4CCOCC4)ncnc3s2)cc1NS(=O)(=O)c1ccc(F)cc1F
Q = COc1ncc(-c2cc3c(N4CCOCC4)ncnc3s2)cc1NS(=O)(=O)c1ccc(F)cc1F
IN: // returns P or Q , whichever has the lower Cmax Let me know the label of the one you choose.
OUT: P

###

Molecular target: Phosphatidylinositol 4,5-bisphosphate 3-kinase catalytic subunit beta isoform (Homo sapiens)
Sequence (P42338 whole entry, canonical isoform): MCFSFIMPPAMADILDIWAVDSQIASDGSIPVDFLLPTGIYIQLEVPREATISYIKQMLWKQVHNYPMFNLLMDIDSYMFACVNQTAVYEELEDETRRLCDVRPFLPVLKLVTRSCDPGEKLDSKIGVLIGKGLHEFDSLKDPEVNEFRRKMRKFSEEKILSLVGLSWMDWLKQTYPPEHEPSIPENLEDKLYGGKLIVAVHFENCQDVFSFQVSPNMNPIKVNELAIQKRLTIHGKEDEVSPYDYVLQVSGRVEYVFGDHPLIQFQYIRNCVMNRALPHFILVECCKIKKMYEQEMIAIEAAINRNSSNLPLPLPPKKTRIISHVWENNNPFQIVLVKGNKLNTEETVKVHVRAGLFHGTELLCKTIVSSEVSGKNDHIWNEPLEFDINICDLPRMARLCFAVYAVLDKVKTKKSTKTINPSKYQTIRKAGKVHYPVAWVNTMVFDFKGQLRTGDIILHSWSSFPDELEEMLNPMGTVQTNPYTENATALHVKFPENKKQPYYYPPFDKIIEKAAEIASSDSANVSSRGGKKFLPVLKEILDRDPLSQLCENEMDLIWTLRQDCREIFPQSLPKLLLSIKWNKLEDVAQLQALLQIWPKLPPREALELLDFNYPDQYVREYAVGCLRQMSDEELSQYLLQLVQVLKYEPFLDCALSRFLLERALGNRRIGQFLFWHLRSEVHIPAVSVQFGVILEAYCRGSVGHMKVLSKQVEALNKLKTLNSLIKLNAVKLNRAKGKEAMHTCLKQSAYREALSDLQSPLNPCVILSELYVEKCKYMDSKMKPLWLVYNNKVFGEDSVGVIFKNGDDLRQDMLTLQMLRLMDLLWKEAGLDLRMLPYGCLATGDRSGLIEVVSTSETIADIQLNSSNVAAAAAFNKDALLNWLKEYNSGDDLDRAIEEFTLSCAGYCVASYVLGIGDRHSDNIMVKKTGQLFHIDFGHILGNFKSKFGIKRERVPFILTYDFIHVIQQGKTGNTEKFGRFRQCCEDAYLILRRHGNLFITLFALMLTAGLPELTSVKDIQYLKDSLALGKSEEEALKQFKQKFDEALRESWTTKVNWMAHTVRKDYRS
Experiment: Inhibition of recombinant human PI3Kbeta using PIP2 as substrate by ADP-Glo reagent based assay
experimental readout: IC50 (nM)

a = COc1ncc(-c2nc3c(N4CCOCC4)ncnc3s2)cc1NS(=O)(=O)c1ccc(F)cc1F
b = COc1ncc(-c2cc3c(N4CCOCC4)ncnc3s2)cc1NS(=O)(=O)c1ccc(F)cc1F
IN: // returns a or b , whichever has the lower IC50 Let me know the label of the one you choose.
OUT: a
(a: 5.3 nM, b: 50 nM)

###

System: BGC-823
Assay: Antiproliferative activity against human BGC-823 cells assessed as reduction in cell viability incubated for 72 hrs measured after 4 hrs of MTT addition by MTT assay
Type: functional, cell-based
experimental readout: IC50 (nM)

P = COc1ncc(-c2nc3c(N4CCOCC4)ncnc3s2)cc1NS(=O)(=O)c1ccc(F)cc1F
Q = COc1ncc(-c2cc3c(N4CCOCC4)ncnc3s2)cc1NS(=O)(=O)c1ccc(F)cc1F
IN: // returns P or Q , whichever has the lower IC50 Let me know the label of the one you choose.
OUT: P

###

Assay: AUC (0 to t) in ICR mouse at 4 mg/kg, iv measured upto 24 hrs by LC-MS/MS analysis
Format: ADME, organism-based
Set-up: route intravenous, dose 4 mg/kg, time <=24
Conditions: in vivo
experimental readout: AUC(0-t) at 24 h (ng·h/mL)

P = COc1ncc(-c2cc3c(N4CCOCC4)ncnc3s2)cc1NS(=O)(=O)c1ccc(F)cc1F
Q = COc1ncc(-c2nc3c(N4CCOCC4)ncnc3s2)cc1NS(=O)(=O)c1ccc(F)cc1F
IN: Endpoint returns whichever of P and Q has the numerically higher AUC(0-t) at 24 h. Let me know the label of the one you choose.
OUT: Q

###

Assay: AUC (0 to infinity) in ICR mouse at 40 mg/kg, po measured upto 24 hrs by LC-MS/MS analysis
Format: ADME, organism-based
Set-up: route oral, dose 40 mg/kg, time <=24
Settings: in vivo
experimental readout: AUC(0-inf) (µg·h/mL)

IN: Report measured AUC(0-inf); entry is COc1ncc(-c2nc3c(N4CCOCC4)ncnc3s2)cc1NS(=O)(=O)c1ccc(F)cc1F
OUT: 142

IN: Report measured AUC(0-inf); entry is COc1ncc(-c2cc3c(N4CCOCC4)ncnc3s2)cc1NS(=O)(=O)c1ccc(F)cc1F
OUT: 187

###

Molecular target: Phosphatidylinositol 4,5-bisphosphate 3-kinase catalytic subunit alpha isoform (Homo sapiens, UniProt P42336)
Assay: Inhibition of recombinant human full length His-tagged PI3Kalpha expressed in baculovirus expression system using PIP2 as substrate by ADP-Glo reagent based assay
experimental readout: IC50 (nM)

Consider the following illustrative entries.
IN: Report measured IC50; entry is COc1ncc(-c2cc3c(-c4ccncc4)ncnc3s2)cc1NS(=O)(=O)c1ccc(F)cc1F
OUT: 5.1

IN: Report measured IC50; entry is COc1ncc(-c2nc3c(N4CCC(OC)CC4)ncnc3s2)cc1NS(=O)(=O)c1ccc(F)cc1F
OUT: 1.3

IN: Report measured IC50; entry is COc1ncc(-c2cc3c(N4CCOCC4)ncnc3s2)cc1NS(=O)(=O)c1ccc(F)cc1F
OUT: 7.2

IN: Report measured IC50; entry is COc1ncc(-c2cc3c(N4CCC(OC)CC4)ncnc3s2)cc1NS(=O)(=O)c1ccc(F)cc1F
OUT: 4.8

IN: Report measured IC50; entry is COc1ncc(-c2cc3c(N4CCN(C)C(=O)C4)ncnc3s2)cc1NS(=O)(=O)c1ccc(F)cc1F
OUT: 16

I = COc1ncc(-c2nc3c(N4CCCCC4)ncnc3s2)cc1NS(=O)(=O)c1ccc(F)cc1F
II = COc1ncc(-c2cc3c(N4CCSCC4)ncnc3s2)cc1NS(=O)(=O)c1ccc(F)cc1F
IN: // returns I or II , whichever has the lower IC50 Let me know the label of the one you choose.
OUT: I

###

Tested on: SNU-638
Test: Antiproliferative activity against human SNU-638 cells assessed as reduction in cell viability incubated for 72 hrs measured after 4 hrs of MTT addition by MTT assay
Type: functional, cell-based
pIC50: −log10 of the molar value.
experimental readout: pIC50

P = COc1ncc(-c2nc3c(N4CCOCC4)ncnc3s2)cc1NS(=O)(=O)c1ccc(F)cc1F
Q = COc1ncc(-c2cc3c(N4CCOCC4)ncnc3s2)cc1NS(=O)(=O)c1ccc(F)cc1F
IN: Endpoint returns whichever of P and Q has the numerically higher pIC50. Let me know the label of the one you choose.
OUT: P
